From: patent US20190256588A1

Field: EC50. Provide a value for each of the binders that follow.
target_or_test_system: T1, recombinant human IL-17A (human, UniProt Q16552 24-155)
T1 construct: also called IL-17A antigen
T1 sequence (Q16552 24-155 limits assumed): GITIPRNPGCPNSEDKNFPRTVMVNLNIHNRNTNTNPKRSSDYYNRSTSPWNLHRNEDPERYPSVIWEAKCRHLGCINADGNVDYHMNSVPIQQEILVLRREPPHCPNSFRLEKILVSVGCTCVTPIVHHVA
experiment_summary: ELISA, recombinant human IL-17A coated at 1 µg/mL, HRP anti-human IgG, OD450nm
Lab note: write values as number then unit, every time.

Item under review: anti-human IL-17A humanized monoclonal antibody AS15802 (antibody, human IgG1, kappa, V domains shown) VH: QVQLQESGPGLVKPSETLSLTCTVSGNSITSYYAWNWIRQPPGKGLEWMGYITYSGTTSYNPSLKSRVTISRDTSKNQFSLKLSSVTAADTAVYYCAREEYDDIYAVDYWGQGTLVTVSS VL: IIVMTQSPLSLPVTLGQPASISCRSSQSLVHSNGNTYLHWYQQRPGQSPRLLIYKVYNRFSGVPDRFSGSGSGTDFTLKISRVEAEDVGVYFCSQSTHFPTFGQGTRLEIKR . Reported EC50?
0.088 nM

Item under review: anti-human IL-17A humanized monoclonal antibody AS15803 (antibody, human IgG1, kappa, V domains shown) VH: QVQVQESGPGLVKPSETLSLTCTVSGNSITSYYAWNWIRQPPGKGLEWMGYITYSGTTSYNPSLKSRITISVDTSKNQFSLKLSSVTAADTAVYYCAREEYDDIYAVDYWGQGTLVTVSS VL: IIVMTQSPLSLPVTLGQPASISCRSSQSLVHSNGNTYLHWYQQRPGQSPRLLIYKVYNRFSGVPDRFSGSGSGTDFTLKISRVEAEDVGVYFCSQSTHFPTFGQGTRLEIKR . Reported EC50?
0.087 nM

Item under review: anti-human IL-17A humanized monoclonal antibody AS15820 (antibody, human IgG1, kappa, V domains shown) VH: QVQLQESGPGLVKPSETLSLTCTVSGNSITSYYAWNWIRQPPGKGLEWMGYITYSGTTSYNPSLKSRVTISVDTSKNQFSLKLSSVTAADTAVYYCAREEYDDIYAVDYWGQGTLVTVSS VL: DIVMTQSPLSLPVTLGQPASISCRSSQSLVHSNGNTYLHWYQQRPGQSPRLLIYKVYNRFSGVPDRFSGSGSGTDFTLKISRVEAEDVGVYFCSQSTHFPTFGQGTRLEIKR . Reported EC50?
0.089 nM
